// data source = patent US20060211705A1

- assay protocol: Radioactive metabolites in plasma, urine and feces after single oral dose of [14C] compound (I) to humans
- Format: in vivo, human
- test conditions: oral 100-mg, pooled fecal extracts 0-168 hr
- Source text: Plasma samples were segregated by collection time and equal volumes of individual plasma samples at a given time point were combined for biotransformation profiling. The C-14 label was on the carbon-2 of the thiazole ring. […] Each fraction of column eluent was evaporated to dryness on a Savant Speed-Vac (Savant Instruments Inc., Holbrook, N.Y.) and counted for radioactivity with a Packard Top Count® microplate scintillation analyzer (Packard Biosciences, Downers Grove, Ill.). […]
Assign class by Metabolites in Feces (0-168 hr), Human, % Rad: not lower than 10% means true (1); lower than 10% means false (0).

molecule | label value
Cc1nc(Nc2ncc(C(=O)Nc3c(C)cccc3Cl)s2)cc(N2CCN(CCO)CC2)n1 [Parent (I), reference compound] | true (1)
Cc1nc(Nc2ncc(C(=O)Nc3c(Cl)cccc3CO)s2)cc(N2CCN(CCO)CC2)n1 | false (0)
Cc1nc(Nc2ncc(C(=O)Nc3c(C)cc(O)cc3Cl)s2)cc(N2CCN(CCO)CC2)n1 | true (1)
Cc1nc(Nc2ncc(C(=O)Nc3c(C)cccc3Cl)s2)cc(N2CCN(CC(=O)O)CC2)n1 | true (1)
Cc1nc(Nc2ncc(C(=O)Nc3c(C)cccc3Cl)s2)cc(N2CCNCC2)n1 | false (0)

###

- assay protocol: Radioactive metabolites in plasma, urine and feces after single oral dose of [14C] compound (I) to monkeys
- Type: in vivo, cynomolgus monkey
- test conditions: oral 10 mg/kg [14C] compound (I), plasma 4 h
Measured % Distribution of radioactive metabolites in pooled plasma, Monkey (4 h), listed per entry.
assay metric: % Distribution of radioactive metabolites in pooled plasma, Monkey (4 h) (%)

molecule | result
Cc1nc(Nc2ncc(C(=O)Nc3c(Cl)cccc3CO)s2)cc(N2CCN(CCO)CC2)n1 | 0.7
Cc1nc(Nc2ncc(C(=O)Nc3c(C)cc(O)cc3Cl)s2)cc(N2CCN(CCO)CC2)n1 | 2.8
Cc1nc(Nc2ncc(C(=O)Nc3c(C)cccc3Cl)s2)cc(N2CCNCC2)n1 | 3.0
Cc1nc(Nc2ncc(C(=O)Nc3c(C)cccc3Cl)s2)cc(N2CCN(CCO)CC2)n1 [Parent (I), reference compound] | 32.1
Cc1nc(Nc2ncc(C(=O)Nc3c(C)cccc3Cl)s2)cc(N2CC[N+]([O-])(CCO)CC2)n1 | 2.6
Cc1nc(Nc2ncc(C(=O)Nc3c(C)cccc3Cl)s2)cc(N2CCN(CC(=O)O)CC2)n1 | 2.7

###

Measured Metabolites in Urine (0-168 hr), Human, % Dose of individual entries
- assay protocol: Radioactive metabolites in plasma, urine and feces after single oral dose of [14C] compound (I) to humans
- Type: in vivo, human
- test conditions: oral 100-mg, pooled urine 0-168 hr
assay metric: Metabolites in Urine (0-168 hr), Human, % Dose (%)

compound | result
Cc1nc(Nc2ncc(C(=O)Nc3c(Cl)cccc3CO)s2)cc(N2CCN(CCO)CC2)n1 [M24 (VI)] | 0.2
Cc1nc(Nc2ncc(C(=O)Nc3c(C)cccc3Cl)s2)cc(N2CCNCC2)n1 [M4 (II)] | 0.05
Cc1nc(Nc2ncc(C(=O)Nc3c(C)cc(O)cc3Cl)s2)cc(N2CCN(CCO)CC2)n1 [M20 (V)] | 0.2
Cc1nc(Nc2ncc(C(=O)Nc3c(C)cccc3Cl)s2)cc(N2CCN(CC(=O)O)CC2)n1 [M6 (IV)] | 0.05
Cc1nc(Nc2ncc(C(=O)Nc3c(C)cccc3Cl)s2)cc(N2CC[N+]([O-])(CCO)CC2)n1 [M5 (III)] | 1.4
Cc1nc(Nc2ncc(C(=O)Nc3c(C)cccc3Cl)s2)cc(N2CCN(CCO)CC2)n1 [Parent (I), reference compound] | 0.1
